Molecular target: T1, C1s in normal cynomolgus monkey serum (CMS, CompTech NCYS) (cynomolgus monkey, UniProt A0A2K5VQX9 16-685)
T1 sequence: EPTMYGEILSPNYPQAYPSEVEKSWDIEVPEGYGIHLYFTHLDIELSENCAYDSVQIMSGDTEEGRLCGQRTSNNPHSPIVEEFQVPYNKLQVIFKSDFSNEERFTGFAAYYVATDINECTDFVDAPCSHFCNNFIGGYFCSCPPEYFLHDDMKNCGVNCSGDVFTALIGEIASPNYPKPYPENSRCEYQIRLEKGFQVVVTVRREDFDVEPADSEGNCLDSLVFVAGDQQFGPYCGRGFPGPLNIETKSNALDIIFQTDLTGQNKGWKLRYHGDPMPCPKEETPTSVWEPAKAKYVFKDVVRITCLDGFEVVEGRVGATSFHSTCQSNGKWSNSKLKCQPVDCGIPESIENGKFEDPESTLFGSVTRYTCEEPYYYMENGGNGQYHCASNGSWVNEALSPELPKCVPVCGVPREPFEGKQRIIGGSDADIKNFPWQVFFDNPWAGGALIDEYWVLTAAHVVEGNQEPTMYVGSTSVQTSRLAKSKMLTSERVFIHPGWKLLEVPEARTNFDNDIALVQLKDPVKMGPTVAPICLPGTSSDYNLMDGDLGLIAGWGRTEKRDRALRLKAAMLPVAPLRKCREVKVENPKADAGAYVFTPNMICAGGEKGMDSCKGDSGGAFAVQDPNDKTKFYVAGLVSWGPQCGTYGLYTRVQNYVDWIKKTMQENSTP
Test: cell-based or functional assay
Measured Attribute: IC50, inhibition of IgM-induced C4 deposition from CMS

Worked examples follow.
Please look up its IC50, inhibition of IgM-induced C4 deposition from CMS: Anti-C1s antibody hz2-8(H1L2) (antibody, V domains shown, Humanized, human IgG1 / kappa) VH: QVQLVQSGAEVKKPGASVKVSCKASGFNIKEYYMHWVRQAPEQGLEWMGWIDPENGDTIYAQKFQGRVTITADTSTNTAYMELSSLRSEDTAVYYCARSRLFFAYWGQGTLVTVSS VL: DIQMTQSPKSLSASVGDRVTITCRASQDVRTALDWYQQKPGQSPKLLIYSASYRYSGVPSRFSGSGSGTDFTLTISSLQPEDFATYYCQQQYTTPYTFGQGTKLEIKR
0.2 µg/mL

Also need Anti-C1s antibody hz2-7(H1L2) (antibody, V domains shown, Humanized, human IgG1 / kappa; also called hz2-7(1L2)) VH: EVQLLESGGGLVQPGGSLRLSCAASGFTFSNYFMNWVRQAPGKGLEWVSEIRLKFTNYATHYADSVKGRFTISRDDSKSTLYLQMNSLRAEDTAVYYCTRDYGSRNGYFDYWGQGTLVTVSS VL: DIVMTQTPLSLPVTPGEPASISCRSSKSLLHSNGNTFLYWFLQKPGQSPQLLIYRMSNLASGVPDRFSGSGSGTDFTLKISRVEAEDVGVYYCMQHLEYPYTFGGGTKLEIKR , thanks.
0.9 µg/mL

Also need Anti-C1s antibody hz2-8 (H1L2 G80A) (antibody, V domains shown, Humanized variant with G80A in HC CDR2 (already in the entry), human IgG1 / kappa) VH: QVQLVQSGAEVKKPGASVKVSCKASGFNIKEYYMHWVRQAPEQGLEWMGWIDPENADTIYAQKFQGRVTITADTSTNTAYMELSSLRSEDTAVYYCARSRLFFAYWGQGTLVTVSS VL: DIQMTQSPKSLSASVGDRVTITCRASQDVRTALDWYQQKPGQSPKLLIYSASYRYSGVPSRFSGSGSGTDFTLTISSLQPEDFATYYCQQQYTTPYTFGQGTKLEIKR , thanks.
0.5 µg/mL

Consider the record given below.
Please look up its IC50, inhibition of IgM-induced C4 deposition from CMS: Anti-C1s antibody hz2-8 (H1L2 G80A/T82A) (antibody, V domains shown, Humanized variant with G80A and T82A in HC CDR2 (already in the entry), human IgG1 / kappa) VH: QVQLVQSGAEVKKPGASVKVSCKASGFNIKEYYMHWVRQAPEQGLEWMGWIDPENADAIYAQKFQGRVTITADTSTNTAYMELSSLRSEDTAVYYCARSRLFFAYWGQGTLVTVSS VL: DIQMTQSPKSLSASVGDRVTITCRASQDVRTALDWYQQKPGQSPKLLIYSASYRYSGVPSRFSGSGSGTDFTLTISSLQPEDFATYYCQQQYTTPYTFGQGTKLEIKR
0.4 µg/mL
